# System: HCT-116 cell line
# assayRemarks: Inhibition of cell growth, MTT tetrazolium salt assay
# Format: cell-based
# testConditions: HCT-116, at 0.1 μM
// boundary case: HCT-116 % Inhibition at 0.1 μM equal to 6% maps to f; strictly smaller maps to t

* Nc1nc(Nc2ccc(C(=O)NC3CCSC3=O)cc2)sc1C(=O)c1c(F)cccc1F (centres unmarked) | t
* CN(CC#N)C(=O)c1ccc(Nc2nc(N)c(C(=O)c3c(F)cccc3F)s2)cc1 | f
* Nc1nc(Nc2ccc(C(=O)NCCCn3ccnc3)cc2)sc1C(=O)c1c(F)cccc1F | t
* Nc1nc(Nc2ccc(C(=O)Nc3ccc4nc[nH]c4c3)cc2)sc1C(=O)c1c(F)cccc1F | f
* Nc1nc(Nc2ccc(C(=O)NCCc3ccccc3)cc2)sc1C(=O)c1c(F)cccc1F | f

### Prompt Strictly below 6% in HCT-116 % Inhibition at 0.1 μM? CSCCC(O)NC(=O)c1ccc(Nc2nc(N)c(C(=O)c3c(F)cccc3F)s2)cc1 (centres unmarked)
### Response t

### Prompt Strictly below 6% in HCT-116 % Inhibition at 0.1 μM? N#CCCN(CC1CCCO1)C(=O)c1ccc(Nc2nc(N)c(C(=O)c3c(F)cccc3F)s2)cc1 (centres unmarked)
### Response f
